Test system: IL-6
measurement protocol: Cytokine production induced by sample formulations: IL-6
Format: in vivo
test context: Table 4; mice, i.v., 0.5 mpk, 6 hours; in pg/mL (unit assumed)
metric name: IL-6

(1) CCCCCCCC/C=C\CCCCCCCCN(CCCCCCCC/C=C\CCCCCCCC)CCN(CCCCCCCC/C=C\CCCCCCCC)CCN1CCNCC1
(2) CCCCCCCCCN(CCCCCCCCC)CCN(CCCCCCCCC)CCN1CCNCC1
Could you tell me which of 1 and 2 has the lower IL-6 reading? Answer by quoting the chosen item's label.
2

* * *

Tested on: IP-10
measurement protocol: Cytokine production induced by sample formulations: IP-10
Format: in vivo
test context: Table 20-4, formula (20-I); mice, i.v., 0.5 mpk, 6 hours; in pg/mL (unit assumed)
metric name: IP-10

Here are 5 compounds together with their reported answers.
CCCCC/C=C\C/C=C\CCCCCCCCN(CCCCCCCC/C=C\C/C=C\CCCCC)CCN(CCO)CCCCCCCCCCCC; 70.0
CCCCCCCCCCCCN(CCO)CCN(CCCCCCCCCCCC)CCCCCC(=O)OCCCCCCC; 696.3
CCCCCCCCCCCCN(CCO)CCN(CCCCCCCCCCCC)CCCCCC(=O)OCCCCC; 522.9
CCCCCCCCCCCCN(CCCCCCCCCCCC)CCN(CCO)CCCCCCCC(=O)OC(CCCCCCCC)CCCCCCCC; 271.1
CCCCCCCCCCCCCCN(CCCCCCCCCCCCCC)CCN(CCCO)CCCCCCCCCCCC; 1700.5

(1) CCCCCCCCCCCCN(CCO)CCN(CCCCCCCCC)CCCCCCCCC
(2) CCCCC/C=C\C/C=C\CCCCCCCCN(CCO)CCN(CCCCCCCC/C=C\C/C=C\CCCCC)CCCCCCCC/C=C\C/C=C\CCCCC
Determine, for 1 and 2 , which has the greater value of IP-10. API: response body contains the label of the selected item.
2
